Experiment: Incorporation into clots induced in a rat model (rat inferior vena cava model)
Assay type: in vivo, rat (Male Wistar)
Details: Fresh Clots
Description: The rats (Male Wistar, 250–350 g) were anaesthetised with 15% urethane. After laparotomy, the vena cava was isolated and freed of surrounding fat tissue. […] The compounds were injected 5 min (fresh clot) and 60 min (aged clot) post-induction. After 60 min the animals were sacrificed and the clot removed, weighed and counted. Other tissues e.g. blood, lung, heart, were also dissected and counted. […]
code Z = not defined here
Threshold 9. Clot/blood below it: TRUE. Clot/blood at it or above: FALSE.

Completed entries (count: 2):
SUBSTANCE	CLASS NAME
Z-NQEQVSPYTLLKG-Pn216 ({code Z}-NQEQVSPYTLLKG-Pn216; reading uncertain; also: 99mTc complex, printed as Z-NQEQVSPYTLLKG-Pn216) [^99mTc-Cmpd 8]	FALSE
Ac-NQEQVSPYTLLKG-Hynic (also: 99mTc complex) [^99mTc-Cmpd 4]	TRUE

Q: # strict comparison: is reported Clot/blood < 9? input = Z-NQEQVSPYAAAAG-Pn216 ({code Z}-NQEQVSPYAAAAG-Pn216; reading uncertain; also: 99mTc complex, printed as Z-NQEQVSPYAAAAG-Pn216) [^99mTc-Cmpd 42]
Ans: TRUE

Q: For this substance, is Clot/blood lower than 9? Ac-NQEQVSPYTLLKG-Pn216 (also: 99mTc complex) [^99mTc-Cmpd 5]
Ans: FALSE

* * *

So I've got a bunch of substances here, and I need their % specific uptake values.
biological target: fibrin (in vitro human plasma clot) (Homo sapiens, UniProt P02671+P02675+P02679); construct: about 400 μl of human plasma containing the radiolabelled substrate; from tissue; host or cells: human plasma, clotted in vitro with added thrombin and calcium chloride; test: Incorporation into human plasma clots in vitro; assay type: biochemical; settings: % retained (with thrombin) - % retained (no thrombin)
*1 amine or outer side, *2 acyl side, *3 side chain or, on linkers, in order; H or OH if unused. Glutaryl = O=C(CCCC(=O)[*:2])[*:1]

                                  substance   measurement_type  observed
0  Ac-(D-N)QEQVSP(D-Y)TLL(D-K)G-Pn216 [^99mTc-Cmpd 32]  % specific uptake     19.8%
1  Ac-NQEQVSP(I-Y)TLLKG-Pn216 [^99mTc-Cmpd 22]  % specific uptake     58.7%

Working through the 2 substances below one at a time, give % specific uptake for each.
1. Ac-NQEQVSP(pBr-F)TLLKG-Pn216 [^99mTc-Cmpd 21]
2. Pn44-CO(CH2)3CO-NQEQVSPYTLLKG-NH2 ({Pn44-Glutaryl}-NQEQVSPYTLLKG-NH2; also: 99mTc complex) [^99mTc-Cmpd 38]

Ans:
1. 60.1%
2. 20.3%

* * *

Target: fibrin (in vitro human plasma clot) (Homo sapiens, UniProt P02671+P02675+P02679)
Construct: about 400 μl of human plasma containing the radiolabelled substrate; from tissue; host or cells: human plasma, clotted in vitro with added thrombin and calcium chloride
Sequence (P02671 20-644 isoform P02671-2 limits assumed): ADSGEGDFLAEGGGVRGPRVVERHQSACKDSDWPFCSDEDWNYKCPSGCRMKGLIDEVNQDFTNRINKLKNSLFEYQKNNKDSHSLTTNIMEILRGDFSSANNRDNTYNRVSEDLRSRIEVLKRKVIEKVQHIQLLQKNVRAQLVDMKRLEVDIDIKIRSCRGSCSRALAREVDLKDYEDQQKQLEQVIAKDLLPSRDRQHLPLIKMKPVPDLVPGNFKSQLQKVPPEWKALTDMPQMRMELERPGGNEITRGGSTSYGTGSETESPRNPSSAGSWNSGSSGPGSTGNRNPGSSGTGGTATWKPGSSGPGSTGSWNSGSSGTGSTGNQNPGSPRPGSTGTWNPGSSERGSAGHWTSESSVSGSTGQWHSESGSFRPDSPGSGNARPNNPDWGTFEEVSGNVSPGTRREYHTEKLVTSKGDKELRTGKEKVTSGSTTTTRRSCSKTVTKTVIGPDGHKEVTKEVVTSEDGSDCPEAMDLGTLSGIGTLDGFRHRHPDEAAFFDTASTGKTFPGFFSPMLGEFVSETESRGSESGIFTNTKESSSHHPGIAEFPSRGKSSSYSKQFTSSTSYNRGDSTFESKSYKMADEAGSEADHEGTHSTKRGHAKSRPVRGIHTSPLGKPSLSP
Sequence (P02675 45-491 limits assumed): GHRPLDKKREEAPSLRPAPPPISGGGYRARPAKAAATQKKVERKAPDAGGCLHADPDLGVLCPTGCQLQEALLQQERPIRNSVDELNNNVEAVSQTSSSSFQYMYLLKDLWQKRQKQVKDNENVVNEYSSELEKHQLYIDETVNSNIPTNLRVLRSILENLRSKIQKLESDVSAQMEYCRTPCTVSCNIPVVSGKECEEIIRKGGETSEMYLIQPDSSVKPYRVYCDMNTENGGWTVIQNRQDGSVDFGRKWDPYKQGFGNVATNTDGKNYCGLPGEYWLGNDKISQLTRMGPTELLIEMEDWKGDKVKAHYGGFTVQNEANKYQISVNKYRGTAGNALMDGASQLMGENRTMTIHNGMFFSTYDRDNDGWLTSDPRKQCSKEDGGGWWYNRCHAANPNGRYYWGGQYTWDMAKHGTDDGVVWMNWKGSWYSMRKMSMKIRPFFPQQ
Sequence (P02679 27-437 isoform P02679-2 limits assumed): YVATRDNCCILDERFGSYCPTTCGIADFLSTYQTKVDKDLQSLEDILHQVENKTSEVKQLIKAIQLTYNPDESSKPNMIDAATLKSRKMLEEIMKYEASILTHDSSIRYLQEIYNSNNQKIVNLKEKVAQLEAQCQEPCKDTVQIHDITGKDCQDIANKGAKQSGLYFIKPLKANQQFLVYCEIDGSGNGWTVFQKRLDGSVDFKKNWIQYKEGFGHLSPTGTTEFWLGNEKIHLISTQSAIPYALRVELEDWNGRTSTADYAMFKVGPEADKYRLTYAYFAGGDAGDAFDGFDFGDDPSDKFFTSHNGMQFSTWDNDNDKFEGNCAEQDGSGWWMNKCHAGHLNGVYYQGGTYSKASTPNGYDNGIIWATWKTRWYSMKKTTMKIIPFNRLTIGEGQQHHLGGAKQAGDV
Experiment: Incorporation into human plasma clots in vitro
Type: biochemical
Conditions: control without thrombin and calcium chloride (non-specific binding)
MEASUREMENT TYPE: % retained (no thrombin) (%)
One number for each entry, in %.

Guide cases for % retained (no thrombin), answers given:
                                  substance  observed
0  Ac-NQEQVSPLTLLKG-Pn216 (also: 99mTc complex) [^99mTc-Cmpd 19]       0.2
1  Ac-NQEQVSPYTLLKG-Pn216 (also: 99mTc complex) [^99mTc-Cmpd 5]       0.2
2            p-EAQIVG-Pn44 [^99mTc-Cmpd 46]       0.2
3  Ac-NAEAVSPYTLLKG-Pn216 (also: 99mTc complex) [^99mTc-Cmpd 14]       0.5
4  Ac-NQEAVSPYTLLKG-Pn216 (also: 99mTc complex) [^99mTc-Cmpd 13]       0.2

Please examine the following record next.
Q: Request: % retained (no thrombin), test system fibrin (in vitro human plasma clot) (Homo sapiens, UniProt P02671+P02675+P02679), entry (CF3)2(C6H3)-NQEQVSPYTLLKG-Pn216 ({(CF3)2(C6H3)}-NQEQVSPYTLLKG-Pn216; also: 99mTc complex) [^99mTc-Cmpd 10]
Ans: 0.2

This collection of values is drawn from patent US7049289B1.
